Hey, just so you know, these numbers are from patent US20210061893A1.

# Target entity: phoenixin binding sites on rat pituitary adenoma cells, RC-4B/C (rat)
# Test summary: displacement of 50 pM 125I-Y0-Phoenixin-20 amide from RC-4B/C cells, gamma counting
Where no end group is shown, it is not given here.
Observed property: pIC50
One number for each entry, as −log10 of the molar value.

Exercise: Look up pIC50: DVQPPGLKVWSDPF-NH2 [phoenixin-14 amide, …-NH2]
Key: 7.75

Then this binder:
Exercise: Any idea what pIC50 was measured for AGIVQEDVQPPGLKVWSDPF-NH2 [Phoenixin-20 amide, …-NH2] ?
Key: 7.67
